Read-out: Interferon-gamma inducible Protein 10 (IP10), CXCL10 (gene 3627)
protocol description: BSK_KF3CT_IP10: BioMAP Diversity Plus: KF3CT Assay for Interferon-gamma inducible Protein 10 (IP10) Biomarker Activity (AID 2283068)
protocol conditions: primary human keratinocytes with fibroblasts; actives raise or lower the signal
Active and inactive are the calls of the source. The calls were made as follows: active = hit-call score of the fitted dose curve at least 0.9, where 1 is the maximum; inactive = score below 0.9.
Bench note: report the call from Yes = active, No = inactive

cpd smiles	class assignment
CC(C)CCCCCCCOC(=O)c1ccccc1C(=O)OCCCCCCCC(C)C	No
Clc1ccc(-c2ccccc2)cc1	No
COC(C)(C)CCC[C@H](C)C/C=C/C(C)=C/C(=O)OC(C)C	Yes
CC(C)(c1cc(Cl)c(O)c(Cl)c1)c1cc(Cl)c(O)c(Cl)c1	Yes
C=CCN(CC=C)C(=O)C(Cl)Cl	No

Now consider a different compound.
Ask: Just curious, what result did O=[N+]([O-])c1ccc(Cl)cc1 get here?
Reply: No

====

protocol description: ATG_GATA_CIS: Attagene CIS-FACTORIAL HepG2 Assay for human GATA Binding Protein (AID 2282944)
protocol conditions: HepG2 GATA cis-element reporter, Attagene multiplex mRNA; actives raise or lower the signal
Calls of active or inactive are those of the source. The calls were made as follows: active = hit-call score of the fitted dose curve at least 0.9, where 1 is the maximum; inactive = score below 0.9.
Pick one and only one: T for active, F for inactive

Here's what some known entries look like.
compound	class assignment
C[N+](C)(C)CC(=O)O	F
C[C@]12CC[C@H](O)C[C@H]1CC[C@@H]1[C@@H]2C[C@@H](O)[C@]2(C)[C@@H](C3=CC(=O)OC3)CC[C@]12O	T
COCC(=O)N(c1c(C)cccc1C)N1CCOC1=O	F
O=CNC(N1CCN(C(NC=O)C(Cl)(Cl)Cl)CC1)C(Cl)(Cl)Cl (stereo unspecified)	F
CN1C[C@H](C(=O)N[C@]2(C)O[C@@]3(O)[C@@H]4CCCN4C(=O)[C@H](Cc4ccccc4)N3C2=O)C=C2c3cccc4[nH]cc(c34)C[C@H]21	F

Ask: Hello, I am checking results. What call was entered for CCCCOC(=O)CCC(=O)OCCCC ?
Reply: F

Ask: Tell me the assay call for CC[N+](=O)[O-] please.
Reply: F

Ask: Please indicate how the test categorized O=C(NC(=O)c1c(F)cccc1F)Nc1ccc(Oc2ccc(C(F)(F)F)cc2Cl)cc1F .
Reply: F

Ask: What did the test return for N#CC(c1ccccc1)c1ccccc1 ?
Reply: F

Ask: Any idea what this test logged for O=C(O)COc1ccccc1 ?
Reply: F

Ask: Short answer needed: outcome of this test for CC=Cc1ccc2c(c1)OCO2 ?
Reply: F

====

assay target: human Thyroid Receptor alpha (THRa1), THRA (gene 7067) (UniProt P10827)
Sequence (P10827 whole entry, looked up): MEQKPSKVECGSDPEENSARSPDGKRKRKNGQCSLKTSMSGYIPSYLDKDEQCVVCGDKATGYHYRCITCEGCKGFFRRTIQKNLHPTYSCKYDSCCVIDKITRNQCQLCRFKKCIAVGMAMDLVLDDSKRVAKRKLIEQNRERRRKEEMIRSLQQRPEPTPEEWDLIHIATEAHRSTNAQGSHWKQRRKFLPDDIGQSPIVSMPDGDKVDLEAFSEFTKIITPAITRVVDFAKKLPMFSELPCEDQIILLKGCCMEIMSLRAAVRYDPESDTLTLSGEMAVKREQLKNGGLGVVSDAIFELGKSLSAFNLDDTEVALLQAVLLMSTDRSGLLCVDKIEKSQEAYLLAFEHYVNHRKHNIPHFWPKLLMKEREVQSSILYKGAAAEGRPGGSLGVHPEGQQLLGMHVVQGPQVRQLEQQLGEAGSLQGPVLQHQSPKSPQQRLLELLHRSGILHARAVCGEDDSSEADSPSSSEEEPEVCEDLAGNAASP
protocol description: ATG_THRa1_TRANS: Attagene TRANS-FACTORIAL HepG2 Assay for human Thyroid Receptor alpha (THRa1) (AID 2283014)
Records with an inconclusive call do not appear. Calls of active or inactive are those of the source. How the source made its calls: active means hit-call score of the fitted dose curve at least 0.9, where 1 is the maximum; inconclusive means response in the unintended direction; inactive means score below 0.9.
measured attribute: outcome

Field: example entries. Status: answers known.
compound	outcome
C[N+](C)=CCl	inactive
N#CCCCCC#N	inactive
N#Cc1cc(I)c(O)c(I)c1	inactive
CN1C(=O)CCS(=O)(=O)C1c1ccc(Cl)cc1 (stereo not drawn)	inactive
C=CC(=O)OCCO	inactive

Ask: API: value(readout= outcome, system= human Thyroid Receptor alpha (THRa1), THRA (gene 7067) (UniProt P10827), query= CCC(C)c1cc(C(C)(C)C)cc(-n2nc3ccccc3n2)c1O (stereo not drawn) )
Reply: inactive

Ask: Short answer please: outcome, human Thyroid Receptor alpha (THRa1), THRA (gene 7067) (UniProt P10827), entry CCC(Br)(CC)C(=O)NC(N)=O
Reply: inactive

Ask: Given the entry O=C(NC(=O)c1c(F)cccc1F)Nc1ccc(Oc2ccc(C(F)(F)F)cc2Cl)cc1F , what outcome was observed with human Thyroid Receptor alpha (THRa1), THRA (gene 7067) (UniProt P10827)?
Reply: inactive
